# System: Crude diglycosidase
# assayOverview: Examination of temperature in the conversion into isoflavone aglycons by diglycosidase using soybean materials
# Type: biochemical, Penicillium multicolor IAM7153
# setupConditions: 80° C., heat treatment of enzyme no, reaction time 6 h
valueType: Decomposition efficiency of genistin family in defatted soybean (%)
Reply numerically in %, unit not repeated.

## Task Requested read-out: Decomposition efficiency of genistin family in defatted soybean. Entry: O=c1c(-c2ccc(O)cc2)coc2cc(O[C@@H]3O[C@H](CO)[C@@H](O)[C@H](O)[C@H]3O)cc(O)c12 [genistin]
## Result 35.3

## Task Next molecule: O=c1c(-c2ccc(O)cc2)coc2cc(O)cc(O)c12 [genistein]
## Result 41.3

## Task Next molecule: CC(=O)OC[C@H]1O[C@@H](Oc2cc(O)c3c(=O)c(-c4ccc(O)cc4)coc3c2)[C@H](O)[C@@H](O)[C@@H]1O [acetylgenistin, 6″-O-acetylgenistin]
## Result 2.5

## Task Next molecule: O=C(O)CC(=O)OC[C@H]1O[C@@H](Oc2cc(O)c3c(=O)c(-c4ccc(O)cc4)coc3c2)[C@H](O)[C@@H](O)[C@@H]1O [malonylgenistin, 6″-O-malonylgenistin]
## Result 20.9
